# System: Vero E6 infected with SARS-CoV-2
# TEST DETAILS: inhibition of SARS-CoV-2 cytopathic effect; higher = more antiviral protection, active = above 15
# EXPERIMENTAL CONDITIONS: 1 nM; 48 h
ASSAY ENDPOINT: inhibition of SARS-CoV-2 cytopathic effect

- COMPOUND: "CNc1cc2c(Nc3cccc(Br)c3)ncnc2cn1"
  RESULT: "-1.96% (inactive)"
- COMPOUND: "O=S(=O)(O)c1cc(O)ccc1O [etamsylate]"
  RESULT: "0.18% (inactive)"
- COMPOUND: "C/C(=C\\C(=O)OCCCCCCCCC(=O)O)C[C@@H]1OC[C@H](C[C@@H]2O[C@H]2[C@@H](C)[C@H](C)O)[C@@H](O)[C@H]1O"
  RESULT: "-1.43% (inactive)"
- COMPOUND: "Cc1nc(Nc2n[nH]c3c2CN(C(=O)N[C@H](CN(C)C)c2ccccc2)C3(C)C)c2sccc2n1"
  RESULT: "3.94% (inactive)"
- COMPOUND: "O=C1CCCN1CC#CCN1CCCC1 [oxotremorine-sesquifumarate]"
  RESULT: "0.81% (inactive)"
- COMPOUND: "C[C@H](Nc1ncnc2[nH]cnc12)c1nc2ccc(F)cc2c(=O)n1-c1ccccc1"
  RESULT: "0.46% (inactive)"

[ask] Would you mind telling me what inhibition of SARS-CoV-2 cytopathic effect value was observed for CC(C)N(CC[C@H](c1ccccc1)c1cc(CO)ccc1O)C(C)C [5-hydroxymethyl-tolterodine] ?
[reply] -1.98% (inactive)

[ask] Would you mind telling me what inhibition of SARS-CoV-2 cytopathic effect value was observed for COc1ccccc1S(=O)(=O)Nc1ccc2c(c1)CN(C)C(=O)N2 ?
[reply] 2.59% (inactive)

====

Recorded measurements of inhibition of SARS-CoV-2 cytopathic effect, one per entry
# Tested on: Vero E6 infected with SARS-CoV-2
# TEST DETAILS: inhibition of SARS-CoV-2 cytopathic effect; higher = more antiviral protection, active = above 15
# EXPERIMENTAL CONDITIONS: 8.33 nM; 48 h
# unit: % | format: bare number

Use these answered entries as a reference point.
- COMPOUND: "CC(C)(CO)c1cc2cc(NC(=O)C3(c4ccc5c(c4)OC(F)(F)O5)CC3)c(F)cc2n1C[C@@H](O)CO"
  MEASURED ON: "Vero E6 infected with SARS-CoV-2"
  RECORDED NUMBER: 0.97
- COMPOUND: "Cc1nn(C)c2c1C(c1cccc(Cl)c1)=NCCN2"
  MEASURED ON: "Vero E6 infected with SARS-CoV-2"
  RECORDED NUMBER: -1.16
- COMPOUND: "N=C(N)NC(=O)c1cnn(-c2cccc3ncccc23)c1C1CC1 [zoniporide]"
  MEASURED ON: "Vero E6 infected with SARS-CoV-2"
  RECORDED NUMBER: 3.39
- COMPOUND: "Nc1ncnc2c1c(-c1ccc(Cl)cc1)nn2-c1cccc(-c2cnnn2Cc2cccc(-c3ccccc3)c2)c1"
  MEASURED ON: "Vero E6 infected with SARS-CoV-2"
  RECORDED NUMBER: -0.01

Please turn your attention to the following entry.
[ask] Form field: inhibition of SARS-CoV-2 cytopathic effect recorded for O=C(O)c1cccnc1C(=O)O with Vero E6 infected with SARS-CoV-2 (enter value)
[reply] -1.19

====

# Test system: Vero E6 infected with SARS-CoV-2
# TEST DETAILS: inhibition of SARS-CoV-2 cytopathic effect; higher = more antiviral protection, active = above 15
# EXPERIMENTAL CONDITIONS: 10000 nM; 48 h
Recorded measurements of inhibition of SARS-CoV-2 cytopathic effect, one per entry
# unit: % | format: bare number

Use these answered entries as a reference point.
- MOLECULE: "NC[C@H]1CC[C@H](C(=O)O)CC1"
  MEASURED ON: "Vero E6 infected with SARS-CoV-2"
  UNIT LABEL: "%"
  RECORDED NUMBER: -0.32
- MOLECULE: "CC[N+](CC)(CCCNC1=CC(=O)C(NCCC[N+](CC)(CC)Cc2ccccc2)=CC1=O)Cc1ccccc1 [benzoquinonium-dibromide]"
  MEASURED ON: "Vero E6 infected with SARS-CoV-2"
  UNIT LABEL: "%"
  RECORDED NUMBER: -1.78

[ask] Form field: inhibition of SARS-CoV-2 cytopathic effect recorded for Cc1nc(Nc2n[nH]c3c2CN(C(=O)N[C@H](CN(C)C)c2ccccc2)C3(C)C)c2sccc2n1 with Vero E6 infected with SARS-CoV-2 (enter value)
[reply] -7.39

[ask] Form field: inhibition of SARS-CoV-2 cytopathic effect recorded for OCc1cccnc1 [nicotinyl-alcohol-tartrate] with Vero E6 infected with SARS-CoV-2 (enter value)
[reply] -0.73

[ask] Form field: inhibition of SARS-CoV-2 cytopathic effect recorded for C=C[C@]1(C)CC[C@@H](C(=C)C)C[C@H]1C(=C)C with Vero E6 infected with SARS-CoV-2 (enter value)
[reply] 0.82

[ask] Form field: inhibition of SARS-CoV-2 cytopathic effect recorded for Cc1cc(N2CCOCC2)cc2[nH]c(-c3c(NC[C@@H](O)c4cccc(Cl)c4)cc[nH]c3=O)nc12 with Vero E6 infected with SARS-CoV-2 (enter value)
[reply] -13.9

====

Recorded measurements of inhibition of SARS-CoV-2 cytopathic effect, one per entry
# System: Vero E6 infected with SARS-CoV-2
# TEST DETAILS: inhibition of SARS-CoV-2 cytopathic effect; higher = more antiviral protection, active = above 15
# EXPERIMENTAL CONDITIONS: 1 nM; 48 h
# unit: % | format: bare number

Use these answered entries as a reference point.
- COMPOUND: "CCCCC1C(=O)N(c2ccccc2)N(c2ccccc2)C1=O"
  UNIT LABEL: "%"
  RECORDED NUMBER: -0.14
- COMPOUND: "CC(=O)c1ccc2c(c1)[C@H](NC(=O)c1ccc(F)c(Cl)c1)[C@H](O)C(C)(C)O2"
  UNIT LABEL: "%"
  RECORDED NUMBER: -2.31
- COMPOUND: "CC(C)C[C@@H](NC(=O)[C@H](C)NC(=O)CNC(=O)[C@@H](NC=O)C(C)C)C(=O)N[C@@H](C)C(=O)N[C@@H](C(=O)N[C@H](C(=O)N[C@@H](C(=O)N[C@@H](Cc1c[nH]c2ccccc12)C(=O)N[C@H](CC(C)C)C(=O)N[C@@H](Cc1c[nH]c2ccccc12)C(=O)N[C@H](CC(C)C)C(=O)N[C@@H](Cc1c[nH]c2ccccc12)C(=O)N[C@H](CC(C)C)C(=O)N[C@@H](Cc1c[nH]c2ccccc12)C(=O)NCCO)C(C)C)C(C)C)C(C)C"
  UNIT LABEL: "%"
  RECORDED NUMBER: 0.05

[ask] Would you mind telling me what inhibition of SARS-CoV-2 cytopathic effect value was observed for O=C(NC[C@H](O)CN1CCc2ccccc2C1)c1cc(NC2COC2)ncn1 ?
[reply] -3.14

[ask] Would you mind telling me what inhibition of SARS-CoV-2 cytopathic effect value was observed for CC(C)(C)NCC(O)COc1ccc(NC(=O)NC2CCCCC2)cc1 (stereo unspecified) ?
[reply] 0.2

[ask] Would you mind telling me what inhibition of SARS-CoV-2 cytopathic effect value was observed for COC(=O)C1=C(C)NC(C)=C(C(=O)OCCSc2ccccc2)[C@@H]1C ?
[reply] -2.31

====

# Tested on: Vero E6 infected with SARS-CoV-2
# TEST DETAILS: inhibition of SARS-CoV-2 cytopathic effect; higher = more antiviral protection, active = above 15
# EXPERIMENTAL CONDITIONS: 100 nM; 48 h
ASSAY ENDPOINT: inhibition of SARS-CoV-2 cytopathic effect (%)
# unit: % | format: bare number

- COMPOUND: "CCC(C)(CN(C)C)OC(=O)c1ccccc1 (centres undefined)"
  RECORDED NUMBER: -0.24
- COMPOUND: "Fc1ccc(-c2cncc(CN3CCN(c4cccc5c4OCCO5)CC3)c2)cc1"
  RECORDED NUMBER: 2.28
- COMPOUND: "CC1(C)OC2(C)C(O)CC1CC2O (centres undefined)"
  RECORDED NUMBER: 4.4
- COMPOUND: "CCCN(CCC)C1Cc2cc(OC)c(OC)cc2C1"
  RECORDED NUMBER: -2.03
- COMPOUND: "COC(=O)C1=C(C)NC(C)=C(C(=O)OC/C=C/c2ccccc2)C1c1cccc([N+](=O)[O-])c1 (centres undefined)"
  RECORDED NUMBER: -0.57

[ask] Form field: inhibition of SARS-CoV-2 cytopathic effect recorded for CCCCc1ccc2[nH]c(NC(=O)OC)nc2c1 with Vero E6 infected with SARS-CoV-2 (enter value)
[reply] -0.29
